Target: SFRP-1 (Homo sapiens, UniProt Q8N474)
Sequence (Q8N474 32-314): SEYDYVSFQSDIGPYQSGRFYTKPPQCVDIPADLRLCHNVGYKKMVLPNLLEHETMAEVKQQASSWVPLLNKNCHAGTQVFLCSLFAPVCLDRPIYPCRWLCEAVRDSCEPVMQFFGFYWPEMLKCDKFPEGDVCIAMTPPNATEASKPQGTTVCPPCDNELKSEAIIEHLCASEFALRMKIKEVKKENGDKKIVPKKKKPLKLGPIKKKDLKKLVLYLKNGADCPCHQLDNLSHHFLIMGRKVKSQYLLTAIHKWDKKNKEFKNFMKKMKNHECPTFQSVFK
Assay: Cell-based assay for in vitro measurement of SFRP-1/SARP2 antagonist activity (U2OS cells co-transfected with 16x TCF-tk-Luciferase reporter, Wnt and hSFRP-1);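 also: U2OS cells co-transfected with a TCF-tk luciferase reporter, a Wnt vector, hSFRP-1 or empty vector and CMV-βgal, luciferase luminescence read in cell lysates alongside βgal activity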
Settings: U2OS, read-out: Fold Induction with SFRP-1, U2OS cells, single dose 10 μM, luciferase reporter, fold induction over SFRP-1 control
Listed compounds paired with reported fold induction at 10 µM
Measurement label: fold induction at 10 µM

>>> df
                                   compound        measurement_label  reported_measurement
0  COC(=O)C1CCC(NS(=O)(=O)c2cc(S(=O)(=O)c3ccccc3)ccc2C(F)(F)F)CC1 (stereo not shown) [Example 946]  fold induction at 10 µM                     3
1  Cc1cc(C(=O)N2CCC(NS(=O)(=O)c3cc(S(=O)(=O)c4ccccc4)ccc3C(F)(F)F)CC2)cc(Cl)n1 [Example 856]  fold induction at 10 µM                   4.2
2  CN(CCNS(=O)(=O)c1cc(S(=O)(=O)c2ccccc2)ccc1C(F)(F)F)C(=O)N1CCOCC1 [Example 835]  fold induction at 10 µM                   3.3
3  COc1ccccc1C(=O)N1CCC(NS(=O)(=O)c2cc(S(=O)(=O)c3ccccc3)ccc2C(C)C)CC1 [Example 803]  fold induction at 10 µM                   3.2
